Molecular target: pooled human IgG
recordedEndpoint: Enzyme Activity Endpoint Assay: IgG (ng/µL)
Numeric answer only, unit ng/µL assumed.

Value of Enzyme Activity Endpoint Assay: IgG reported for the protein PRT-19 (protein) MANQEIRYSEESPSVVTSVWTKGVTPPANFTYGEDVFHAPYIANQGWYDITKTFNGKDDLLCGAATAGNMLHWWFDQNKDEIEAYLKKHPEKQKINFNGEQMFDVKEAIDTKDDQTNSKLFNYFKDKAFPYLSTKHLGVFPDHVLDMFINGYRLNLTNHGPTPVKEGSKDPRGGIFDAVFTRGDQSKLLTSRHDFKEKTLKEISDLIKQELTEGKALGLSHTYANVRINHVINLWGADFNSEGNLKAIYVTDSDSNASIGMKKYFVGVNAAGKVAISAKEIKDDNIGAQVLGLFTLSTGQDIWNQTN is 13

Data origin, for the record: patent US20250027068
